The values you see were collected from ChEMBL document CHEMBL3734708.

Assay: Cytotoxicity against african green monkey Vero 76 cells assessed as reduction in cell viability after 48 to 96 hrs by MTT assay
Format: cell-based
Conditions: chlorocebus sabaeus
Reported CC50 values for the following molecules.
The answer is to be given in µM; state only the numeric part.

Known results for molecules:
INSERT INTO results (smiles_representation, quantity_name, assay_result) VALUES
  ('O=c1c(-c2ccccc2)nc2cc3cccnc3c(Cl)c2n1CC1CCCCC1', 'CC50', 20),
  ('c1csc(-c2nc3cc4cccnc4cc3n2C2CCCCC2)c1', 'CC50', 15),
  ('c1ccc(-c2nc3cc4cccnc4cc3n2C2CCCCC2)cc1', 'CC50', 35),
  ('N#CCn1c(=O)c(-c2ccccc2)nc2c(Cl)c3ncccc3cc21', 'CC50', 90);

With those in mind, consider the next molecule.
CC50 for O=c1[nH]c2cc3cccnc3c(Cl)c2nc1Cc1ccccc1 is 88
